# measuredTarget: JNK2 (Homo sapiens)
# Sequence (P45984 whole entry): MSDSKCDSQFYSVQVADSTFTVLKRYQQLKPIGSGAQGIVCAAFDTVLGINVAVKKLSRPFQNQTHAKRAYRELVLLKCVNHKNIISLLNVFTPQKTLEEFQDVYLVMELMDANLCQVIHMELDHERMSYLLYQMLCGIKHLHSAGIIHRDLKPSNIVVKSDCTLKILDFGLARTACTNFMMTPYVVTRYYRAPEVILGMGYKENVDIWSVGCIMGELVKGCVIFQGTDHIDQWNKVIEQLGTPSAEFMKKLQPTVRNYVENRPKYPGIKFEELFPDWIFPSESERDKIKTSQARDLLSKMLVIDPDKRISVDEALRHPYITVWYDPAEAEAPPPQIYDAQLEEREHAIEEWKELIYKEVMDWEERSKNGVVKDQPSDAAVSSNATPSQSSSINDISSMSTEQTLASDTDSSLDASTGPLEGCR
readoutName: IC50

> print(dat)
                               samplesmiles  measuredvalue
1  COc1cc(-c2ccnn2C)ccc1Nc1nc(NC2CCCCC2)c2c(C#N)c[nH]c2n1       < 100 nM

---

# Tested on: MDA-MB-231 cells
# experimentDescription: Inhibition of proliferation of triple-negative breast cancer cells, CellTiter-Glo
# Assay type: cell-based
# conditions: Homo sapiens, 120 h; MDA-MB-231, cultured for 5 days
readoutName: GI50

> print(dat)
                               samplesmiles   measuredvalue
1  COc1cc(-c2ccnn2C)ccc1Nc1nc(NC2CCOCC2)c2c(C(F)(F)F)c[nH]c2n1        < 100 nM
2  COCC(C)(C)Nc1nc(Nc2ccc(N3CCCC3=O)cc2OC)nc2[nH]cc(C#N)c12  100 to 1000 nM
3  COC[C@@H](C)Nc1nc(Nc2ccc(-n3ccnc3C)cc2OC)nc2[nH]cc(C#N)c12        < 100 nM
4  N#Cc1c[nH]c2nc(Nc3cccc4c3OCCO4)nc(NC3CCOCC3)c12        < 100 nM
5  COc1cc(-c2ccnn2C)ccc1Nc1nc(NC2CCCC2)c2cc[nH]c2n1  100 to 1000 nM
6  COc1cc(-c2cnn(C)c2)ccc1Nc1nc(NC2CCOCC2)c2c(C(F)(F)F)c[nH]c2n1        < 100 nM
7  COc1cc(-c2nncn2C)ccc1Nc1nc(NC2CCOCC2)c2c(C#N)c[nH]c2n1        < 100 nM
8  COc1cc(Nc2nc(NC3CCCC3)c3c(C#N)c[nH]c3n2)ccc1-c1c(C)noc1C  100 to 1000 nM

---

Data export: IC50 values recorded with TTK (Homo sapiens).
Counter-ions that a name gives are not always drawn.
readoutName: IC50

> print(dat)
                                    molecule   measuredvalue
 1  Cn1nccc1-c1ccc(Nc2nc(NC3CCC3)c3c(C#N)c[nH]c3n2)c2c1OCCO2 [Example 82]         < 50 nM
 2  CN(C)S(=O)(=O)CCNc1nc(Nc2ccc(-c3ccnn3C)c3c2OCCO3)nc2[nH]cc(C#N)c12 [Example 85]         < 50 nM
 3  Cn1nccc1-c1ccc(Nc2nc(NC3CCC(F)(F)C3)c3c(C#N)c[nH]c3n2)c2c1OCCO2 (stereo not shown) [Example 116]         < 50 nM
 4  COc1cc(-c2nncn2C)ccc1Nc1nc(NC2CCCC(F)(F)C2)c2c(C#N)c[nH]c2n1 (stereo not shown) [Example 154]         < 50 nM
 5  CC[C@H](C)Nc1nc(Nc2ccc(-c3ccnn3C)cc2OC)nc2[nH]cc(C#N)c12 [Example 1, trifluoroacetate]         < 50 nM
 6  COc1cc(-c2ccnn2C)ccc1Nc1nc(NC2CCCCC2)c2c(C#N)c[nH]c2n1 [Example 7]         < 50 nM
 7  N#Cc1c[nH]c2nc(Nc3cccc4c3OCCO4)nc(NC3CCOCC3)c12 [Example 170]         < 50 nM
 8  N#Cc1c[nH]c2nc(Nc3ccc(N4CCCS4(=O)=O)c(F)c3)nc(NC3CCCC3)c12 [Example 173]         < 50 nM
 9  Cn1nccc1-c1ccc(Nc2nc(NCC3CCCC3)c3c(C#N)c[nH]c3n2)c2c1OCCO2 [Example 50, hydrochloride]    50 to 200 nM
10  COc1cc(N2CCCCS2(=O)=O)ccc1Nc1nc(NC2CCCC2)c2c(C#N)c[nH]c2n1 [Example 155]         < 50 nM
11  Cn1nccc1-c1ccc(Nc2nc(NC3CCCC3)c3c(C(F)(F)F)c[nH]c3n2)c2c1OCCO2 [Example 133]  200 to 1000 nM
12  COc1cc(-c2ccnn2C)ccc1Nc1nc(NC2CCCC2)c2cc[nH]c2n1 [Example 113]    50 to 200 nM
13  COc1cc(Nc2nc(NC3CCCC3)c3c(C#N)c[nH]c3n2)ccc1-c1cnn(C)c1 [Example 136]    50 to 200 nM
14  COc1cc(Nc2nc(NC3CCCCC3)c3c(C#N)c[nH]c3n2)ccc1-c1ccnn1C [Example 121]         < 50 nM
15  COc1cc(-c2ccc(F)nc2)ccc1Nc1nc(NC2CCCCC2)c2c(C#N)c[nH]c2n1 [Example 24]         < 50 nM
16  CC(=O)N1CCN(Cc2ccc(-c3ccc(Nc4nc(NC5CCCCC5)c5c(C#N)c[nH]c5n4)cc3)cc2)CC1 [Example 21]    50 to 200 nM

---

# reported pIC50; entries follow
Protein target, amino acids: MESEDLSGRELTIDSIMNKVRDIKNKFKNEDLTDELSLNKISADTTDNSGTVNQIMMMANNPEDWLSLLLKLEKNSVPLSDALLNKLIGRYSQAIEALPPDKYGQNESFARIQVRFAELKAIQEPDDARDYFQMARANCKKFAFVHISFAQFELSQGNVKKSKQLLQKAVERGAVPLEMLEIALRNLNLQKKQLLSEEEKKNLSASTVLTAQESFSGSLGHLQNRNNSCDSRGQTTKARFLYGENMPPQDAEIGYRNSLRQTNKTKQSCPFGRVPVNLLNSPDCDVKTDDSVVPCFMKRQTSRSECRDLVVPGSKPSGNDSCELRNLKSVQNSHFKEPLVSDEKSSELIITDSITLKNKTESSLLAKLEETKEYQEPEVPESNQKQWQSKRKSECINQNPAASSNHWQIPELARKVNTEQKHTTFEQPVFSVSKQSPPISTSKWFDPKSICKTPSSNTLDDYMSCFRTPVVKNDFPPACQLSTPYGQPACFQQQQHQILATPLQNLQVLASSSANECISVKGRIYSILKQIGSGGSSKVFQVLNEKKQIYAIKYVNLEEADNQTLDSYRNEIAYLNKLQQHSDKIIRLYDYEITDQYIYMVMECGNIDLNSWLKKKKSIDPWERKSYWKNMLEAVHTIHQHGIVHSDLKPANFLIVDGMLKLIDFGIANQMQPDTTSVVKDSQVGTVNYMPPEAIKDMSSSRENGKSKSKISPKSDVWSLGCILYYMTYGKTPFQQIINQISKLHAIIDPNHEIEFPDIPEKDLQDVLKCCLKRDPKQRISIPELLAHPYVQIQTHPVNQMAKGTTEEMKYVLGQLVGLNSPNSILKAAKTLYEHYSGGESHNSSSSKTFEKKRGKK
pIC50: −log10 of the molar value.
readoutName: pIC50

> print(dat)
                               samplesmiles  measuredvalue
1  COc1cc(-c2ccnn2C)ccc1Nc1nc(NC2CCCC2)c2c(Cl)c[nH]c2n1   6.70 to 7.30
2  COc1cc(N2CCCC2=O)ccc1Nc1cc(NC2CCCCC2)c2c(C#N)c[nH]c2n1         > 7.30
3  CNc1nc(Nc2ccc(N3CCCC3=O)cc2OC)nc2[nH]cc(C(F)(F)F)c12   6.70 to 7.30
4  COc1cc(-c2ccnn2C)ccc1Nc1nc(NCC2CCCC2)c2c(C#N)c[nH]c2n1   6.70 to 7.30

---

Data export: pIC50 values recorded with TTK (Homo sapiens).
pIC50: −log10 of the molar value.
readoutName: pIC50

> print(dat)
                                   compound      measuredtarget  measuredvalue
1  N#Cc1c[nH]c2nc(Nc3ccc(-c4ccc(CN5CCN(C6CC6)CC5)cc4)cc3)nc(NC3CCCCC3)c12  TTK (Homo sapiens)         > 7.30
2  COc1cc(-c2ccc(CN3CCN(C(C)=O)CC3)cc2)ccc1Nc1nc(NC2CCCC2)c2c(C#N)c[nH]c2n1  TTK (Homo sapiens)   6.70 to 7.30
3  N#Cc1c[nH]c2nc(Nc3ccc(N4CCCC4=O)c4c3OCCO4)nc(NC3C[C@H]4CC[C@@H]3C4)c12 (stereo partly shown)  TTK (Homo sapiens)         > 7.30
4  COc1cc(N2CCCCS2(=O)=O)ccc1Nc1nc(NC2CCCC2)c2c(C(F)(F)F)c[nH]c2n1  TTK (Homo sapiens)   6.70 to 7.30
5  COc1cc(-c2ccnn2C)ccc1Nc1nc(NC2CCOC(C)(C)C2)c2c(C#N)c[nH]c2n1 (stereo not shown)  TTK (Homo sapiens)         > 7.30
6  CC(C)Nc1nc(Nc2ccc(-c3ccnn3C)c3c2OCCO3)nc2[nH]cc(C#N)c12  TTK (Homo sapiens)         > 7.30
7  COc1cc(-c2ccnn2C)c(F)cc1Nc1nc(NC2CCCCC2)c2c(C#N)c[nH]c2n1  TTK (Homo sapiens)   6.70 to 7.30
